Test system: Epidermal growth factor receptor (Homo sapiens), P00533 [L858R,T790M]
Sequence (P00533 whole entry T790M/L858R, looked up): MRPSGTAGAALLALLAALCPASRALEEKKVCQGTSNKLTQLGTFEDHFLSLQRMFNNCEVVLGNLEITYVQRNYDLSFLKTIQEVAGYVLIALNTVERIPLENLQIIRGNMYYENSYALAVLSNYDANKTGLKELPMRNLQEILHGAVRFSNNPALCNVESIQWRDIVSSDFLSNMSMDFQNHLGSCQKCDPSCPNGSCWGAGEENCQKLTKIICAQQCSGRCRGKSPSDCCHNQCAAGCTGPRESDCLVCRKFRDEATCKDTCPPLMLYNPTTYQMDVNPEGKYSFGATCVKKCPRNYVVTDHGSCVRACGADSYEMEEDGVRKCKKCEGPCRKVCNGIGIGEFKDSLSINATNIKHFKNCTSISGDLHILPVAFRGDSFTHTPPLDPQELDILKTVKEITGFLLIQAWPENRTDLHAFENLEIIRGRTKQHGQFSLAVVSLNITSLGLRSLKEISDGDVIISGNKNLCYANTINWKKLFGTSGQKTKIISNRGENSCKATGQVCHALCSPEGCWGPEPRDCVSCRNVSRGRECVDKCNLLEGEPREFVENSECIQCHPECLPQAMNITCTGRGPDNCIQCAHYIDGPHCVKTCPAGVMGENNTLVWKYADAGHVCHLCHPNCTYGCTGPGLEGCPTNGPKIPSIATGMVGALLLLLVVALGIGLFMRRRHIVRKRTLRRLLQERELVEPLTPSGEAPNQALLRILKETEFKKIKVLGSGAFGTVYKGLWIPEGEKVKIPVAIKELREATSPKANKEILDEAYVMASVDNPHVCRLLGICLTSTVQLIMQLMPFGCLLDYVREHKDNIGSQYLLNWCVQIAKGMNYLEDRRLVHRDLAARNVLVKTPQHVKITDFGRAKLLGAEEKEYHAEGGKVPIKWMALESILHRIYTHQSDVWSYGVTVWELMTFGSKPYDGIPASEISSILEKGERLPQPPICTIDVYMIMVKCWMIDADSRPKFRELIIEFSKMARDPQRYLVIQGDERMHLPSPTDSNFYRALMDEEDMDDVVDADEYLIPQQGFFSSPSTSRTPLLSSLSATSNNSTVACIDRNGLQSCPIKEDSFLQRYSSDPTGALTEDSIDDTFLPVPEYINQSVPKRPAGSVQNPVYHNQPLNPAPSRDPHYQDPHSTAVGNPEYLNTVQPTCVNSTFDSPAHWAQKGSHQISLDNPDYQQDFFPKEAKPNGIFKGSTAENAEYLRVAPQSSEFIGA
Conditions: at 1 µM
quantity measured: inhibition

inhibition in this record for "COc1ccc(CNC(=O)c2ccc(-c3cc(-c4nnc(C)o4)ccc3C)cc2)cc1" : 3.61%

inhibition in this record for "COc1cc2ncn(-c3cc(OCc4ccccc4C(F)(F)F)c(C(=O)N(C)C)s3)c2cc1OC" : -1.46%

inhibition in this record for "COc1ccc(-c2cc3c(N)ncnc3o2)cc1" : -0.81%

inhibition in this record for "COc1cccc(-c2c[nH]c3c(N/N=C/c4ccncc4)ncnc23)c1" : 22.9%

inhibition in this record for "CNC(=O)c1cncc(/C=C/c2ccccc2Cl)c1" : -0.51%

inhibition in this record for "CC(C)(CO)CNC(=O)c1ccc2c(c1)/C(=N/Nc1ccc(S(N)(=O)=O)cc1)C(=O)N2" : -1.42%
